// provenance: PubChem BioAssay (NCI)

system: KM12 colon; experiment: NCI tumour cell line growth inhibition, 48 h
metricName: TGI (µM)

- CCCCCCCCCCN(CCCCCCCCCC)C(=O)COc1c2cc(C(C)(C)C)cc1Cc1cc(C(C)(C)C)cc(c1OCC(=O)N(CCCCCCCCCC)CCCCCCCCCC)Cc1cc(C(C)(C)C)cc(c1OCC(=O)N(CCCCCCCCCC)CCCCCCCCCC)Cc1cc(C(C)(C)C)cc(c1OCC(=O)N(CCCCCCCCCC)CCCCCCCCCC)C2: 24.5
- CCc1oc2ccccc2c1C(=O)c1cc(I)c(O)c(I)c1: 13

----------
test system: A549 NSCLC; assay: NCI tumour cell line growth inhibition, 48 h
// reported GI50 for each item listed
metricName: GI50

• CC(=O)O.[Au].c1ccc([PH+](c2ccccc2)c2ccccc2)cc1 = 18.8 µM
• C=C1C(=O)O[C@H]2[C@H]1CC/C(COC(=O)c1cc3ccccc3s1)=C\CC[C@@]1(C)O[C@@H]21 = 2.04 µM
• CCC(=O)c1c(C(F)(F)F)n([O-])c2ccc(C)cc2[n+]1=O = 11.3 µM
• N.N.O=C([O-])P(=O)([O-])[O-].[Na+].[Pt+4] = > 100 µM
• Cn1c2ccccc2c2c3[nH]c(=O)[nH]c(=O)c3c3c4ccccc4n(C)c3c21 = 2.86 µM

----------
system: SF-268 CNS; assay: NCI tumour cell line growth inhibition, 48 h
Entries and their measured TGI follow.
metricName: TGI (µM)

* O=C(O)Cc1cccc2c1OC(c1ccccc1)C(Cl)(C(=O)c1ccccc1)C2=O (stereo not drawn) | 76.1
* COc1cc2c(c(OC)c1OC)C(=O)[C@@H]1c3ccc([N+](=O)[O-])cc3C(=O)N(CCCBr)[C@H]21 | 41.6
* O=C(/C(=C/c1cccc([N+](=O)[O-])c1)c1ccccc1)c1ccccc1 | 15.5
* Cc1ccc2c3c(c(=O)[nH]c2c1)C1(C(C#N)=C(N)O3)c2cc(Br)ccc2-c2ccc(Br)cc21 | 5.08
* CC[C@H](C)[C@H]1O[C@]2(C=C[C@@H]1C)C[C@@H]1C[C@@H](C/C=C(\C)[C@@H](O[C@H]3C[C@H](OC)[C@@H](O[C@H]4C[C@H](OC)[C@@H](NC)[C@H](C)O4)[C@H](C)O3)[C@@H](C)/C=C/C=C3\CO[C@@H]4[C@H](O)C(C)=C[C@@H](C(=O)O1)[C@]34O)O2 | 16
* COc1ccc(/C(Cl)=C(\C=O)c2ccc([N+](=O)[O-])cc2)cc1 | 92.3
* COc1cc2c3c(n(C)c(=O)c2cc1OC)-c1cc2c(cc1/C3=C\CNCCCN)OCO2 | 10.8
* C=C1CC[C@@H]2[C@](C)(COC(C)=O)[C@H](OC(C)=O)CC[C@@]2(C)[C@@H]1CC(Nc1ccc(S(=O)(=O)Nc2ncccn2)cc1)C1=CCOC1=O (stereo partly drawn) | 4.16

----------
tested on: KM12 colon; test: NCI tumour cell line growth inhibition, 48 h; in the data active means GI50 below about 0.43 µM; inactive means the rest
Labels: yes = active, no = inactive

• COc1cc2c3c(n(C)c(=O)c2cc1OC)-c1cc2c(cc1/C3=C\CNCCCN)OCO2 = yes
• CC[CH2][Sn]([Cl])([Cl])[CH2]CC.Oc1ccccc1C=NCCN=Cc1ccccc1O = no
• O=C1NN(C2=NNC3(C(=O)N2)c2ccccc2-c2ccccc23)C(c2ccccc2)=N/C1=C/c1ccc(O)cc1 = no
• C=C1C(=O)O[C@H]2[C@H]1CC/C(COC(=O)c1cc3ccccc3s1)=C\CC[C@@]1(C)O[C@@H]21 = no
• CCN(CC)CCCC(C)Nc1cnc(C(=O)Nc2cccc3ccc(OC)nc23)cn1 (stereo not given) = no
